target_or_test_system: T1, PARD3 PDZ3 (human, UniProt Q8TEW0 582-685)
T1 construct: third PDZ domain of human PARD3, residues 582-685, numbering of the full-length human protein; […]; Labelled on amines with RED-NHS dye for MST; also called PARDD3-3; not shown: His tag, N-terminal, cleaved
T1 sequence (Q8TEW0 582-685): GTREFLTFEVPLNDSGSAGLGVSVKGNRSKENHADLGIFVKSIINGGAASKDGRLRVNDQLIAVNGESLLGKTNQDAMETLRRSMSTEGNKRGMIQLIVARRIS
test: MST; […]; PBS tween 20 0.05%; room temperature; […]; duplicate
condition_description: both partners purified
measurement_label: Kd (µM)

- NLNSSRVPDLLV (also called SARS-CoV-2 WT; SARS-CoV-2 peptide E) [C-terminal SARS-CoV-2-E PBM peptide]: 341
